- TESTED SYSTEM: T1, human soluble IL-6R (human, UniProt P08887 20-357)
- T1 sequence: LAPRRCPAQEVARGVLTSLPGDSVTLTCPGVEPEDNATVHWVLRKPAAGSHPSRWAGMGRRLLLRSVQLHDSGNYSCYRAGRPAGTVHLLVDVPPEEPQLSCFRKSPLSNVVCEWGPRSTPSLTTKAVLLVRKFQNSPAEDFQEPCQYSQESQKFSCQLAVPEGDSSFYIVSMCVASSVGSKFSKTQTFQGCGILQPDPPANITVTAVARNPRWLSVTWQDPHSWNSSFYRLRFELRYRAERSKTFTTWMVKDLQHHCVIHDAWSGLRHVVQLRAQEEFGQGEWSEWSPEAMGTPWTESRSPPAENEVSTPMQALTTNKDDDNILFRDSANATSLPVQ
- MEASUREMENT DESCRIPTION: cell-based or functional assay
MEASURED METRIC: Proliferation in % (Ba/F3_gp130 cells, IL-6 + sIL-6R = 100%; IL-6 trans signalling; 1% PE) (%)
Answer format: numeric, % implied, no suffix.

Q: Entry candidate anti-IL-6R Fab clone 07 (Fab, V domains shown) VH: EVKLVESGGGLVQPGGSLKLSCAASGFTFSSYAMSWVRQTADKRLELVANINSNGGSTYYPDSVKGRFTISRDNAKNTLFLQMSSLKSEDTAMYYCAREGYYTMDYWGQGTSVTVSS VL: DIVLTQSPASLAVSPGQRATISCRASESVDSYGNSFMNWYQQKPGQPPKLLIYLASNLESGVPARFSGSGSRTDFTLTIDPVEADDAATYYCQQNNEDPYTFGGGTKLEIK has what Proliferation in % (Ba/F3_gp130 cells, IL-6 + sIL-6R = 100%; IL-6 trans signalling; 1% PE)?
A: 55.7
